Biological target: Recombinant human Factor IX (rhFIX, Genetics Institute) (human, UniProt P00740 47-461)
Sequence (P00740 47-461 limits assumed): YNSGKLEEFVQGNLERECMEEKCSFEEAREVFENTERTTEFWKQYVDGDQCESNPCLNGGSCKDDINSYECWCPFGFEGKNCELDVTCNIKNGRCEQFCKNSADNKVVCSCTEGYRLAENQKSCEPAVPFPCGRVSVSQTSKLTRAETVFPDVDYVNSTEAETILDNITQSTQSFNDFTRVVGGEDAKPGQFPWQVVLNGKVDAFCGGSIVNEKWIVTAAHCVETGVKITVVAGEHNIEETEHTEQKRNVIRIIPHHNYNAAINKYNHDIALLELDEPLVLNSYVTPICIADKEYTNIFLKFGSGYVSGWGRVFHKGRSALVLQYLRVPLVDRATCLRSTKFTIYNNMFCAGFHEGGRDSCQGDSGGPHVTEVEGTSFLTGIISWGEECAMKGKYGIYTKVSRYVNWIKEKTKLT
Assay: SPR (BIAcore), antibody bound to immobilized protein A, Factor IX in solution
Protocol: The kinetics of Factor IX binding to SB 249417 was assessed by BIAcore analysis with antibody bound to an immobilized protein A surface. Recombinant human Factor IX (rhFIX, Genetics Institute) at 49 nM was used and measurements performed in the presence of 5 mM Ca²⁺.
In this section we review reported kon values for a set of binders.
Quick note: give the figure in M⁻¹ s⁻¹, leave out the unit.

BINDER	kon / M⁻¹ s⁻¹
humanized anti-human Factor IX monoclonal antibody SB 249416 (antibody, human IgG1, V domains shown, Human IgG1 and kappa constant regions from the vectors; also called F9HZHC 1-1 / F9HZLC 1-2) VH: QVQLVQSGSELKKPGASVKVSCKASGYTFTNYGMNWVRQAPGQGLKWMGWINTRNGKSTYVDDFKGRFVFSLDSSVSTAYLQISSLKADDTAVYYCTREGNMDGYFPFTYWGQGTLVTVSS VL: EIVLTQSPATLSLSPGERATLSCRASSSVNYMHWYQQRPGQAPKPWIYATSNLASGVPARFSGSGSGTDYTLTISSLEPEDFAVYYCQQWSINPRTFGGGTKVEIKR	520000

Input line: Tell me the measured kon of mouse-human chimeric anti-Factor IX monoclonal antibody chαFIX (antibody, V domains shown, BC2 variable regions with human constant regions; also called Chf9; F9CHHC / F9CHLC) VH: QIQLVQSGPELKKPGETVKISCKASGYTFTNYGMNWVKQAPGKGLKWMGWINTRNGKSTYVDDFKGRFAFSLESSASTANLQIDNLKDEDTATYFCTREGNMDGYFPFTYWGQGTLVTVSA VL: QIVLSQSPAILSASPGEKVTMTCRASSSVNYMHWYQQKPGSSPKPWIYATSNLASGVPARFSGSGSGTSYSLTISRVEAEDAATYYCQQWSINPRTFGGGTKLEIK , please.
Output line: 240000
